TGT: Tyrosyl-DNA phosphodiesterase 2 (Homo sapiens, UniProt O95551)
Sequence (O95551 whole entry): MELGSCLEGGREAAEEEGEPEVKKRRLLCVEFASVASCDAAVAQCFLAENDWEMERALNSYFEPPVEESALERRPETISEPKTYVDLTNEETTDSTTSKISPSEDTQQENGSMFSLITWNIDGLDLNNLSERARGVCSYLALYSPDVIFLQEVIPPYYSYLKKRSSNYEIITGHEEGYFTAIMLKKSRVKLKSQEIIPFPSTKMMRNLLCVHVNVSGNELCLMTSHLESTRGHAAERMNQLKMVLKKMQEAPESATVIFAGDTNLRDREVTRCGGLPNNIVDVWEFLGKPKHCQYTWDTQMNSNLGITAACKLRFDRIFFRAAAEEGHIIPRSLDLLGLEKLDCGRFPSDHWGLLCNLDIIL
TEST_DETAILS: potency against TDP2 phosphodiesterase activity – biochemical, epi absorbance, IC50, dose response (AID 743297)
Active and inactive are the calls of the source. Rule as the data show it: active = IC50 of 10 µM or less and inactive = more.
Labels: active, inactive

CHEM_SMILES: C=CCN(CC=C)C(=S)Nc1ccc2nsnc2c1
GROUP: inactive
--
CHEM_SMILES: CCOc1cc(/C=C2/C(=O)N(c3ccccc3)N=C2C)ccc1OC(=O)c1ccco1
GROUP: inactive
--
CHEM_SMILES: COc1cc(CCNC2=CC(=O)c3ncccc3C2=O)ccc1O
GROUP: inactive
--
CHEM_SMILES: CCOC(=O)c1c(C)[nH]c2c1-c1ccccc1C(=O)C2=O
GROUP: active
--
CHEM_SMILES: COc1cc(C(c2c(C)[nH]n(-c3ccccc3)c2=O)c2c(C)[nH]n(-c3ccccc3)c2=O)cc(OC)c1OC
GROUP: inactive
--
CHEM_SMILES: Cc1ccc(-n2c3nc(=O)[nH]c(=O)c-3cc3cc([N+](=O)[O-])ccc32)cc1
GROUP: inactive
